Kindly supply the reported IC50 values for the records listed here.
Tested on: A549
measurement_description: Antiproliferative activity against human A549 cells after 5 days by EZMTT reagent-based assay
Type: functional, cell-based
condition_set: A549, 120 h

Asked: Name the recorded IC50 of Nc1nnc(CCSCCc2nnc(NC(=O)Cc3ccccc3)s2)s1 , assay system A549.
Given back: > 13 µM

Asked: Name the recorded IC50 of Cn1ccc(CC(=O)Nc2nnc(CCSCCc3nnc(N)s3)s2)c1 , assay system A549.
Given back: > 13 µM

Asked: Name the recorded IC50 of Nc1nnc(CCSCCc2nnc(NC(=O)Cc3ccccc3)[se]2)[se]1 , assay system A549.
Given back: > 13 µM

Asked: Name the recorded IC50 of Cn1ccc(CC(=O)Nc2nnc(CCSCCc3nnc(N)[se]3)[se]2)c1 , assay system A549.
Given back: > 13 µM

// provenance: ChEMBL document CHEMBL4368901
